Listed binders paired with reported KD Ratio
- Experimental System: T1, Glutathione S-transferase (GST)-tagged AITR (human, UniProt Q9Y5U5 26-139)
- T1 construct: also called GST-AITR antigen; GST-AITR analyte; not shown: Glutathione S-transferase (GST) tag
- T1 sequence (looked up): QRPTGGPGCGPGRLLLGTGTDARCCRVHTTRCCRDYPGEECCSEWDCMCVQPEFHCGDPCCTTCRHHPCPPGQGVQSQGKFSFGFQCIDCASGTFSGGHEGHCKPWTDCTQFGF
- Assay Details: KD ratio against parental IRTCA-A, repeated from the SPR of Table 3
# unit: fold | format: bare number

Worked examples, 5 binders total:
>  <Binder>
IRTCA-A1 (Clone L1E9) Fab (Fab, V domains shown) VH: QVQLVQSGTQVKMPGASVKVSCKASGYTFDDYGIGWVRQAPGQGLEWMGWISPYTHRTNSSPKLQDRVTMTTDTSTSTAYMELRSLRSDDTAVYYCARDGTYYDFWSGYFDNGAFDIWGQGTLVTVSS VL: QSVVTQPPSVSAAPGQKVTISCSGSTSNIGNNYVSWYQQLPGTAPKLLIYDNYKRPSGIPDRFSGSKSGTSATLGITGLRTGDEADYFCGSWESGSNAYKFGGGTKLTVL

>  <Experimental Endpoint>
KD Ratio

>  <Experimental Value>
8.2

$$$$
>  <Binder>
Parental IRTCA-A Fab (Fab, V domains shown) VH: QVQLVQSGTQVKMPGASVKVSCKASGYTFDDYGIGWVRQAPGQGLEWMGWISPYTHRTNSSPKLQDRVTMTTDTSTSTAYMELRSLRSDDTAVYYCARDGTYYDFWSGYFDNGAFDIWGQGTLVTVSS VL: QSVVTQPPSVSAAPGQKVTISCSGSTSNIGNNYVSWYQQLPGTAPKLLIYDNYKRPSGIPDRFSGSKSGTSATLGITGLRTGDEADYFCGTWDSSLNAWVFGGGTKLTVL

>  <Experimental Endpoint>
KD Ratio

>  <Experimental Value>
1

$$$$
>  <Binder>
IRTCA-A14 (Clone H2F8) Fab (Fab, V domains shown) VH: QVQLVQSGTQVKMPGASVKVSCKASGYTFDDYGIGWVRQAPGQGLEWMGWISPYTHRTNSSPKLQDRVTMTTDTSTSTAYMELRSLRSDDTAVYYCARDGTYYDFWSGYFDTAAFDIWGQGTLVTVSS VL: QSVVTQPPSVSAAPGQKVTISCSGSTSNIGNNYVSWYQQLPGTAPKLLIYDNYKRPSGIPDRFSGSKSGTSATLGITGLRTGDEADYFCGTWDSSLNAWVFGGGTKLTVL

>  <Experimental Endpoint>
KD Ratio

>  <Experimental Value>
30.1

$$$$
>  <Binder>
IRTCA-A10 (Clone H1A10) Fab (Fab, V domains shown) VH: QVQLVQSGTQVKMPGASVKVSCKASGYTFDDYGIGWVRQAPGQGLEWMGWISPYTHRTNSSPKLQDRVTMTTDTSTSTAYMELRSLRSDDTAVYYCARDGTYYDFWSGYFDNAAFDSWGQGTLVTVSS VL: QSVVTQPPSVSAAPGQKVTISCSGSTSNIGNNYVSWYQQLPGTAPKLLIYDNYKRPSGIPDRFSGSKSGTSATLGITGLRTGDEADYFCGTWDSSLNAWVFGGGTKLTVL

>  <Experimental Endpoint>
KD Ratio

>  <Experimental Value>
8.4

$$$$
>  <Binder>
IRTCA-A12 (Clone H2A10) Fab (Fab, V domains shown) VH: QVQLVQSGTQVKMPGASVKVSCKASGYTFDDYGIGWVRQAPGQGLEWMGWISPYTHRTNSSPKLQDRVTMTTDTSTSTAYMELRSLRSDDTAVYYCARDGTYYDFWSGYFDNATFDFWGQGTLVTVSS VL: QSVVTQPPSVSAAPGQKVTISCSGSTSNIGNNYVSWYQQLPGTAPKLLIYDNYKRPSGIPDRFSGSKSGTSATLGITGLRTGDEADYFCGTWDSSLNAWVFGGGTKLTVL

>  <Experimental Endpoint>
KD Ratio

>  <Experimental Value>
27.6

$$$$

Consider the additional binder presented here.
Prompt: # KD Ratio lookup, item IRTCA-A15 (Clone H1F1) Fab (Fab, V domains shown) VH: QVQLVQSGTQVKMPGASVKVSCKASGYTFDDYGIGWVRQAPGQGLEWMGWISPYTHRTNSSPKLQDRVTMTTDTSTSTAYMELRSLRSDDTAVYYCARDGTYYDFWSGYFDNNAFDIWGQGTLVTVSS VL: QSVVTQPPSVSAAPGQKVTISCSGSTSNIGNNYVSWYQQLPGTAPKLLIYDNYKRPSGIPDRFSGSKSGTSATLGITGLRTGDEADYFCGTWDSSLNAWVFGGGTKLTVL
Completion: 44.4
